# Test system: HER3ss-Gluc
# assay procedure: HER3ss assay
# Type: cell-based
# protocol conditions: HEK-293T T-rex cells, transient transfection, doxycycline, 24 h; read-out: HER3 ss IC50
pIC50: −log10 of the molar value. Numbered stars: 1 amine (or outer) side, 2 acyl side, 3 side chain; on linkers, the order of the positions; unused ones are H or OH. Square brackets hold non-standard residues; d marks the D form. Peptide text beside a SMILES is read from it. NMeAla(5-Cl-benzothien-3-yl) = CN[C@@H](Cc1csc2ccc(Cl)cc12)C(=O)O; Ala(1-cyclohexenyl) = N[C@@H](CC1=CCCCC1)C(=O)O; Butanoyl(2R-oxy,4-CN) = N#CCC[C@@H](O)C(=O)O; X12 = O=C([C@H](CC1=CCCC1)N[*:1])[*:2]; NMeL = CN[C@@H](CC(C)C)C(=O)O; NMeA = CN[C@@H](C)C(=O)O
Answer 0.0 if pIC50 is under 7, and 1.0 if it is 7 or more.

compound: CC(C)C[C@@H]1NC(=O)[C@H](Cc2csc3ccc(Cl)cc23)N(C)C(=O)[C@H](CC2=CCCC2)NC(=O)[C@H](CC(C)C)N(C)C(=O)[C@H](CC2=CCCCC2)NC(=O)[C@@H](CCC#N)OC(=O)[C@H](C)N(C)C1=O [C-86] (cyclo(L[NMeA][Butanoyl(2R-oxy,4-CN)][Ala(1-cyclohexenyl)][NMeL][X12][NMeAla(5-Cl-benzothien-3-yl)]))
qualitative label: 1.0

API: the following record is the query input.
For this compound, is measured pIC50 7 or higher? CC(C)C[C@@H]1NC(=O)[C@H](Cc2cn(Cc3cccc(OC(F)(F)F)c3)c3ccccc23)N(C)C(=O)[C@H](CC(C)C)NC(=O)[C@H](CC(C)C)N(C)C(=O)[C@H](CC(C)C)NC(=O)[C@@H](CCC#N)OC(=O)[C@H](C)N(C)C1=O [C-75] (HELM PEPTIDE1{L.[meA].[N#CCC[C@@H](O[*:1])C(=O)[*:2]].L.[meL].L.[CN([C@@H](Cc1cn(Cc2cccc(OC(F)(F)F)c2)c2ccccc12)C(=O)[*:2])[*:1]]}$PEPTIDE1,PEPTIDE1,1:R1-7:R2$$$V2.0) 0.0

* * *

# System: HER3ss-Gluc
# assay procedure: HER3ss assay
# Format: cell-based
# protocol conditions: HEK-293T T-rex cells, transient transfection, doxycycline, 24 h; read-out: HER3 ss IC50
Numbered stars: 1 amine (or outer) side, 2 acyl side, 3 side chain; on linkers, the order of the positions; unused ones are H or OH. Square brackets hold non-standard residues; d marks the D form. Peptide text beside a SMILES is read from it. NMeAla(5-Cl-benzothien-3-yl) = CN[C@@H](Cc1csc2ccc(Cl)cc12)C(=O)O; X15 = CCn1cc(C[C@@H](C(=O)[*:2])N(C)[*:1])c2ccccc21; Butanoyl(2R-oxy,4-CN) = N#CCC[C@@H](O)C(=O)O; X21 = CN([C@@H](CC1=CCCC1)C(=O)[*:2])[*:1]; Abu(4,4,4-F3) = N[C@@H](CC(F)(F)F)C(=O)O; X12 = O=C([C@H](CC1=CCCC1)N[*:1])[*:2]; NMeL = CN[C@@H](CC(C)C)C(=O)O; NMeA = CN[C@@H](C)C(=O)O
Parameter: pIC50. Scope: all listed entries.
In plain terms, pIC50 is the concentration in mol/L turned into minus its base-10 logarithm.

Sample records with pIC50:
molecule: CC(C)C[C@@H]1NC(=O)[C@H](Cc2csc3ccc(Cl)cc23)N(C)C(=O)[C@H](CC(C)C)NC(=O)[C@H](CC2=CCCC2)N(C)C(=O)[C@H](CC(F)(F)F)NC(=O)[C@@H](CCC#N)OC(=O)[C@H](C)N(C)C1=O [C-81] (cyclo(L[NMeA][Butanoyl(2R-oxy,4-CN)][Abu(4,4,4-F3)][X21]L[NMeAla(5-Cl-benzothien-3-yl)]))
pIC50: 7.06
--
molecule: CC(C)C[C@@H]1NC(=O)[C@H](Cc2csc3ccc(Cl)cc23)N(C)C(=O)[C@H](CC2=CCCC2)NC(=O)[C@H](CC(C)C)N(C)C(=O)[C@H](CC(F)(F)F)NC(=O)[C@@H](CCC#N)OC(=O)[C@H](C)N(C)C1=O [C-96] (cyclo(L[NMeA][Butanoyl(2R-oxy,4-CN)][Abu(4,4,4-F3)][NMeL][X12][NMeAla(5-Cl-benzothien-3-yl)]))
pIC50: 8.22
--
molecule: CCn1cc(C[C@H]2C(=O)N[C@@H](CC(C)C)C(=O)N(C)[C@@H](C)C(=O)O[C@H](CCC#N)C(=O)N[C@@H](CC(F)(F)F)C(=O)N(C)[C@@H](CC(C)C)C(=O)N[C@@H](CC(F)(F)F)C(=O)N2C)c2ccccc21 [C-79] (cyclo(L[NMeA][Butanoyl(2R-oxy,4-CN)][Abu(4,4,4-F3)][NMeL][Abu(4,4,4-F3)][X15]))
pIC50: 6.95

Read the next record carefully.
State recorded pIC50 with HER3ss-Gluc, entry CC(C)C[C@@H]1NC(=O)[C@H](Cc2ccccc2)N(C)C(=O)[C@H](CC(C)C)NC(=O)[C@H](CC(C)C)N(C)C(=O)[C@H](CC(C)C)NC(=O)[C@@H](CCC#N)OC(=O)[C@H](C)N(C)C1=O [C-37] (HELM PEPTIDE1{L.[meA].[N#CCC[C@@H](O[*:1])C(=O)[*:2]].L.[meL].L.[meF]}$PEPTIDE1,PEPTIDE1,1:R1-7:R2$$$V2.0) , no comment. 6.57

* * *

# Tested on: BT474 breast tumor cell line
# assay procedure: BT474 assay (Alamar blue)
# Format: cell-based
# protocol conditions: Homo sapiens, BT-474, 72 h
Peptide text beside a SMILES is read from it.
readout: pEC50
Kindly note that pEC50 refers to -log10 of the concentration in mol/L and answer with the value alone.

compound: COc1ccccc1Cn1cc(C[C@H]2C(=O)N[C@@H](CC(C)C)C(=O)N(C)[C@@H](C)C(=O)O[C@H](CCC#N)C(=O)N[C@@H](CC(C)C)C(=O)N(C)[C@@H](CC(C)C)C(=O)N[C@@H](CC(C)C)C(=O)N2C)c2ccccc21 [C-32] (HELM PEPTIDE1{L.[meA].[N#CCC[C@@H](O[*:1])C(=O)[*:2]].L.[meL].L.[COc1ccccc1Cn1cc(C[C@@H](C(=O)[*:2])N(C)[*:1])c2ccccc21]}$PEPTIDE1,PEPTIDE1,1:R1-7:R2$$$V2.0)
pEC50: 5.28

Consider the additional compound presented here.
Let me know recorded pEC50 for CC(C)C[C@@H]1NC(=O)[C@H](Cc2cn(Cc3ccc(F)c(F)c3)c3ccccc23)N(C)C(=O)[C@H](CC(C)C)NC(=O)[C@H](CC(C)C)N(C)C(=O)[C@H](CC(C)C)NC(=O)[C@@H](CCC#N)OC(=O)[C@H](C)N(C)C1=O [C-28] (HELM PEPTIDE1{L.[meA].[N#CCC[C@@H](O[*:1])C(=O)[*:2]].L.[meL].L.[CN([C@@H](Cc1cn(Cc2ccc(F)c(F)c2)c2ccccc12)C(=O)[*:2])[*:1]]}$PEPTIDE1,PEPTIDE1,1:R1-7:R2$$$V2.0) , thanks. 6.03

* * *

Form field: pEC50 (one value per entry).
# Test system: BT474 breast tumor cell line
# assay procedure: BT474 assay (Alamar blue)
# Assay type: cell-based
# protocol conditions: Homo sapiens, BT-474, 72 h
Square brackets hold non-standard residues; d marks the D form. Peptide text beside a SMILES is read from it. Butanoyl(2R-oxy,4-CN) = N#CCC[C@@H](O)C(=O)O; Nva(5,5,5-F3) = N[C@@H](CCC(F)(F)F)C(=O)O; Abu(4,4,4-F3) = N[C@@H](CC(F)(F)F)C(=O)O; NMeBta = CN[C@@H](Cc1csc2ccccc12)C(=O)O; NMeL = CN[C@@H](CC(C)C)C(=O)O; NMeA = CN[C@@H](C)C(=O)O
// pEC50 is dimensionless: -log10 of concentration (M)

Below are worked cases with known answers.
molecule: CC(C)C[C@@H]1NC(=O)[C@H](Cc2cn(Cc3ccc(Br)cc3)c3ccccc23)N(C)C(=O)[C@H](CC(C)C)NC(=O)[C@H](CC(C)C)N(C)C(=O)[C@H](CC(C)C)NC(=O)[C@@H](CCC#N)OC(=O)[C@H](C)N(C)C1=O [C-14] (HELM PEPTIDE1{L.[meA].[N#CCC[C@@H](O[*:1])C(=O)[*:2]].L.[meL].L.[CN([C@@H](Cc1cn(Cc2ccc(Br)cc2)c2ccccc12)C(=O)[*:2])[*:1]]}$PEPTIDE1,PEPTIDE1,1:R1-7:R2$$$V2.0)
assayed system: BT474 breast tumor cell line
experimental value: 6.07

molecule: CC(C)C[C@@H]1NC(=O)[C@H](CC(C)C)N(C)C(=O)[C@H](CC(F)(F)F)NC(=O)[C@@H](CCC#N)OC(=O)[C@H](C)N(C)C(=O)[C@H](CCC(F)(F)F)NC(=O)[C@H](Cc2csc3ccccc23)N(C)C1=O [C-49] (cyclo(L[NMeBta][Nva(5,5,5-F3)][NMeA][Butanoyl(2R-oxy,4-CN)][Abu(4,4,4-F3)][NMeL]))
assayed system: BT474 breast tumor cell line
experimental value: 5.75

Turning to the following molecule.
Output pEC50 of CC(C)C[C@@H]1NC(=O)[C@H](Cc2csc3ccccc23)N(C)C(=O)[C@H](CC(C)C)NC(=O)[C@H](CC(C)C)N(C)C(=O)[C@H](CC(C)C)NC(=O)[C@@H](CCC#N)OC(=O)[C@H](C)N(C)C1=O [C-29] (HELM PEPTIDE1{L.[meA].[N#CCC[C@@H](O[*:1])C(=O)[*:2]].L.[meL].L.[CN([C@@H](Cc1csc2ccccc12)C(=O)[*:2])[*:1]]}$PEPTIDE1,PEPTIDE1,1:R1-7:R2$$$V2.0) 5.87
